Recorded values, source patent US10077238B2.

molecular target: LFA-1 (Homo sapiens, UniProt P20701); construct: endogenous in cells; assay: V well cell adhesion assay, LFA-1-mediated Jurkat cell binding to ICAM-1 (LFA-1 adhesion); settings: Jurkat cells on ICAM-1/Fc; mean ±SD of ≥3 independent experiments in triplicates or single experiments in triplicates
Sequence (P20701 26-1170): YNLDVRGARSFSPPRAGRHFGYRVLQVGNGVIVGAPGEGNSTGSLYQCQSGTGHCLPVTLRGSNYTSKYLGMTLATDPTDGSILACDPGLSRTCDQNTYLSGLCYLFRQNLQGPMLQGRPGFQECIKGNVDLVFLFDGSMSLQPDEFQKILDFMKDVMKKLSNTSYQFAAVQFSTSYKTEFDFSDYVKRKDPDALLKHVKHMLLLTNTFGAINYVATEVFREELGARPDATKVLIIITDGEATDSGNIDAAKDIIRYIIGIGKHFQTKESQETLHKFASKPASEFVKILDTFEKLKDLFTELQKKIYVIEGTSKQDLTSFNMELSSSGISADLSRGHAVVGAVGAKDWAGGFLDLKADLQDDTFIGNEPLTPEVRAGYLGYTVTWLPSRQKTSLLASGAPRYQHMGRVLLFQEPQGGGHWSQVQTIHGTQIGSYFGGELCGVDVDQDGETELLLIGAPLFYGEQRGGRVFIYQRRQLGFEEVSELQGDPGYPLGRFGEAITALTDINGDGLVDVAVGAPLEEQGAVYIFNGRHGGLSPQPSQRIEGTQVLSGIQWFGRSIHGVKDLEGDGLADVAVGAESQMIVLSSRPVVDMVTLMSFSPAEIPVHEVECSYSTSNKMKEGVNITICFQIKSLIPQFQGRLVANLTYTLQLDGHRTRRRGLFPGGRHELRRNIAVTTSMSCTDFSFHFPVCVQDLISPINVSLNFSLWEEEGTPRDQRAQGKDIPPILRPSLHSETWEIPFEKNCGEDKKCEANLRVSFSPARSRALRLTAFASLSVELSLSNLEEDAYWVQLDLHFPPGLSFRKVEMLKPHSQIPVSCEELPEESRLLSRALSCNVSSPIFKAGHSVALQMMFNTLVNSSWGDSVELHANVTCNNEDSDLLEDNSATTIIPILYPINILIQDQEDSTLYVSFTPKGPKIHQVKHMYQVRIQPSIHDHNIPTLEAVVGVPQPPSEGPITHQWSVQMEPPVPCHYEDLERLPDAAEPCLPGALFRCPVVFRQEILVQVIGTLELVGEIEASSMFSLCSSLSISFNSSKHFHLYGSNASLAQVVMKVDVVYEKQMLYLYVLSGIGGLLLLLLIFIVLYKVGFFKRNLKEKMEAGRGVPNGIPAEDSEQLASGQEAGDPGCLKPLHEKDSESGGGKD
Sequence (P05107 23-769 partner): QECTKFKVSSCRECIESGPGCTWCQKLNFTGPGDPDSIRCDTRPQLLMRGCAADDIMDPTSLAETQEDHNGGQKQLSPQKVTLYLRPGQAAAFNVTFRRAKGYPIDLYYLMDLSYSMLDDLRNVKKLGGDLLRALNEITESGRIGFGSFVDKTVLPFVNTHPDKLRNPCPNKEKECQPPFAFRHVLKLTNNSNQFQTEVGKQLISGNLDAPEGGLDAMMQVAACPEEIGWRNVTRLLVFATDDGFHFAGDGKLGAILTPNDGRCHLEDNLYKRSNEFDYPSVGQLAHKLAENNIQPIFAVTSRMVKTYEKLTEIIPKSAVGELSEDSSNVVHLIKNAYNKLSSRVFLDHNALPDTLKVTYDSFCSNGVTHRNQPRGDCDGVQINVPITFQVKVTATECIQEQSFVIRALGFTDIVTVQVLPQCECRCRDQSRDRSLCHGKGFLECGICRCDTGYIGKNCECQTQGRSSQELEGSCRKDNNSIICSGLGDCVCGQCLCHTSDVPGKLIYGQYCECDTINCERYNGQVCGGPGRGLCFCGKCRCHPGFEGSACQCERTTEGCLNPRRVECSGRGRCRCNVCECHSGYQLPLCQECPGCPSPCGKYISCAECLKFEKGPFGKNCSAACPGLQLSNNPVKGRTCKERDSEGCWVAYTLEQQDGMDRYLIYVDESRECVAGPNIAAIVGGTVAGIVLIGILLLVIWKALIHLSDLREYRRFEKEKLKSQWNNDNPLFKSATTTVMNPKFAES
attributeMeasured: pIC50
Note: pIC50 values are expressed as the negative base-10 logarithm of concentration in M.

[
  {
    "compound": "C[C@]12C(=O)N(c3cc(Cl)cc(Cl)c3)C(=O)[C@H]1C2(c1ccccc1)c1ccccc1 (racemic) [4b (racemate)]",
    "attributeMeasured": "pIC50",
    "readoutNumber": 5.73
  }
]

Name the recorded pIC50 of the item O=C1C2C(C(=O)N1c1cc(Cl)cc(Cl)c1)C2(c1ccncc1)c1ccc(OC(F)(F)F)cc1 (single isomer, unassigned) [4w or 4′w diastereomer I] in your answer. 6.67
